Taken from PubChem BioAssay (NCATS).

# STUDY TARGET: Cytochrome P450 2D6 (Homo sapiens)
# ASSAY METHOD TEXT: Cytochrome P450 family 2 subfamily D member 6 (CYP2D6) small molecule antagonists: luciferase biochemical (cell-free) qHTS assay (AID 1645840); also: nearly all actives have a fitted effect of over 55% in size
# TEST SETTINGS: P450-Glo CYP2D6 enzyme, luciferin luminescence, 1 h; series mostly up to 57.4 µM
Records with an inconclusive call do not appear. Activity calls are given as the source filed them. Calls follow the shape of the dose curve; as a rule, active = well fitted inhibition curve with a large enough effect in the repeat runs; inconclusive = weak or mixed curves; inactive = flat fitted curve, though single readings scatter.
Outcomes: active, inactive

| COMPOUND | STUDY TARGET | CAT |
| --- | --- | --- |
| O=C1C(Cc2ccc(O)cc2)N2C(=O)CCN(C(=O)NCc3ccccc3)C2CN1Cc1cccc2ccccc12 (stereo unspecified) | Cytochrome P450 2D6 (Homo sapiens) | active |
| O=C(Nc1ccc(C(O)(C(F)(F)F)C(F)(F)F)cc1)c1ccc(C(F)(F)F)cc1 | Cytochrome P450 2D6 (Homo sapiens) | active |
| Fc1ccc(CN2CCC(Nc3ccc(C(F)(F)F)nn3)CC2)cc1F | Cytochrome P450 2D6 (Homo sapiens) | active |
| Cc1ccc(C)c(NC(=O)[C@@H]2CCCN2S(=O)(=O)c2cccc3cccnc23)c1 | Cytochrome P450 2D6 (Homo sapiens) | active |
| Cc1ccc(C2(C(=O)N3CCC(n4nc(-c5ccccc5)oc4=O)CC3)CC2)cc1 | Cytochrome P450 2D6 (Homo sapiens) | active |
| CCCCC1CCC(c2nc(-c3ccncc3)no2)CC1 (stereo unspecified) | Cytochrome P450 2D6 (Homo sapiens) | active |
| O=S(=O)(NCc1cccc2ccccc12)c1cc(Cl)c(Oc2cccc(N3CCNCC3)c2)s1 | Cytochrome P450 2D6 (Homo sapiens) | active |
| O=c1[nH]c2ccccc2n1CCN1CCN(c2cccc(C(F)(F)F)c2)CC1 | Cytochrome P450 2D6 (Homo sapiens) | active |
| CCCc1cc(C)n(C)c(=O)c1CN(C)C(=O)c1cc(-c2ccc(N3CCN(C(C)C)CC3)nc2)cc2c1cnn2C(C)C | Cytochrome P450 2D6 (Homo sapiens) | inactive |
| Nc1c(CC(=O)O)cccc1C(=O)c1ccccc1 | Cytochrome P450 2D6 (Homo sapiens) | inactive |
| N#Cc1cnc2c(Cl)cc(NCc3cn(CCN4CCCCCC4)nn3)cc2c1Nc1ccc(F)c(Cl)c1 | Cytochrome P450 2D6 (Homo sapiens) | active |

----------
# Tested on: C33A
# ASSAY METHOD TEXT: Primary qHTS to identify gynecologic anti-cancer compounds using libraries of approved drugs and bioactive compounds (AID 1345084); also: nearly all actives have a fitted effect of over 55% in size
# TEST SETTINGS: Gynecologic cancer cell panel viability, ATPlite luminescence, 48 h; series mostly up to 57.5 µM
Results filed as inconclusive are left out. The source made the active and inactive calls. The call rests on the fitted dose curve; in most records, active means well fitted cell-killing curve with a large enough effect; inconclusive means small, poorly fitted or top-dose-only effect, or effect the other way; inactive means flat fitted curve, though single readings scatter.
Outcomes: active, inactive

| COMPOUND | CAT |
| --- | --- |
| C[C@@H](c1ccc2nccn2c1)n1nnc2ncc(-c3cnn(C)c3)nc21 | inactive |
| Cc1ccc(S(=O)(=O)N2CCC[C@H]2c2ccc(F)cc2)cc1 | inactive |
| COc1ccc(S(=O)(=O)Nc2cc(Cl)cc(Cl)c2OC)cc1N1CCNCC1 | inactive |
| C=C1/C(=C/C=C2\CCC[C@]3(C)[C@@H]([C@H](C)/C=C/[C@@H](C)C(C)C)CC[C@@H]23)C[C@@H](O)C[C@@H]1O | inactive |
| CC(C)OC(=O)N1CCC(Oc2ncnc3c2cnn3-c2ccc(S(C)(=O)=O)cc2F)CC1 | inactive |
| NS(=O)(=O)c1ccc(N2CCN(CC[C@@H]3OCCc4ccccc43)CC2)cc1 | inactive |
| Cc1cc2occ(CN(C)CCN(C)Cc3cn(-c4cccc(C(F)(F)F)c4)c4ccccc34)c(=O)c2cc1C | active |
| Cc1ccc(C(C)C)c(O[C@@H]2O[C@H](CO)[C@@H](O)[C@H](O)[C@H]2O)c1 | inactive |
| Fc1ccc(-c2nc(-c3c(F)cccc3F)[nH]c2-c2ccncc2)cc1 | inactive |
| CC(C)(O)C1Cc2c(ccc(C(=O)CCc3ccccc3)c2O)O1 (centres undefined) | active |
| Nc1nc2c(ncn2C2OC3COP(=O)(O)OC3C2O)c(=O)[nH]1 (centres undefined) | inactive |
| CC(C)S(=O)(=O)Nc1ccc(F)c(C(=O)c2c[nH]c3ncc(-c4cccnc4)cc23)c1F | inactive |
| COC(=O)CC(O)CC(O)/C=C/c1c(C)ccc2c1C(OC(C)=O)CC(C)C2 (centres undefined) | inactive |
| CC[C@H]1OC(=O)[C@H](C)[C@@H](O[C@H]2C[C@@](C)(OC)[C@@H](O)[C@H](C)O2)[C@H](C)[C@@H](O[C@H]2O[C@H](C)C[C@H](N(C)C)[C@H]2O)[C@](C)(O)C[C@@H](C)C(=O)[C@H](C)[C@@H](O)[C@]1(C)O | inactive |
